Tested on: rodent lifetime carcinogenesis bioassay, tumor incidence TD50
Experiment: carcinogenic potency in animals, long-term in vivo studies, CPDB compilation (AID 1745844)
Conditions: mouse; strain B6C3F1; males; inhaled; site: nasal cavity; lesion: hemangioma + hemangiosarcoma; dosed 103 weeks; study length 104 weeks

compound: CC1CO1 (stereo unspecified)
TD50: 732 mg/kg/day

---

Tested on: rodent lifetime carcinogenesis bioassay, tumor incidence TD50
Test: carcinogenic potency in animals, long-term in vivo studies, CPDB compilation (AID 1745844)
Conditions: mouse; strain B6AKF1; females; oral dosing; site: lung; lesion: adenoma; dosed 81 weeks; study length 81 weeks
value_type: TD50 (mg/kg/day)

compound: CCCc1ccc2c(c1)OCO2
reported_measurement: 739
